Data provenance is patent US20240123080A1.

System: L540cy HL
protocol-description: In vitro cytotoxicity, cell proliferation assay (CellTiter-Glo, 96 h)
Format: cell-based
details: auristatin free drug
pIC50: −log10 of the molar value. Where a SMILES comes first, the peptide text is derived from it. [ ]: non-standard residue; d: D form. The star is where a group is joined. Dolaproine = CO[C@@H]([C@@H]1CCCN1)[C@@H](C)C(=O)O; Dil = CC[C@H](C)[C@H](NC)[C@@H](CC(=O)O)OC; Doe = c1ccc(C[C@H](N*)c2nccs2)cc1; NMeS = CN[C@@H](CO)C(=O)O
Assign class by pIC50: not lower than 8 means Yes; lower than 8 means No.

Consider the following illustrative entries.
>>> category_label("CC[C@H](C)[C@@H]([C@@H](CC(=O)N1CCC[C@H]1[C@H](OC)[C@@H](C)C(=O)N[C@@H](Cc1ccccc1)[C@@H](O)CO)OC)N(C)C(=O)[C@@H](NC(=O)[C@H](CO)N(C)C)C(C)C [Example 57]")
"No"
>>> category_label("CC[C@H](C)[C@@H]([C@@H](CC(=O)N1CCC[C@H]1[C@H](OC)[C@@H](C)C(=O)NC(CO)Cc1nccs1)OC)N(C)C(=O)[C@@H](NC(=O)[C@H](CO)N(C)C)C(C)C (some centres unmarked) [Example 52]")
"No"
>>> category_label("CC[C@H](C)[C@@H]([C@@H](CC(=O)N1CCC[C@H]1[C@H](OC)[C@@H](C)C(=O)N[C@@H](Cc1ccccc1)c1nccs1)OC)N(C)C(=O)[C@@H](NC(=O)[C@H](CO)NC)[C@@H](C)CC [Example 20] (H-[NMeS]I[Dil][Dolaproine]-Doe)")
"Yes"

Next, consider the following compound.
Hi team, for CC[C@H](C)[C@@H]([C@@H](CC(=O)N1CCC[C@H]1[C@H](OC)[C@@H](C)C(=O)N[C@H](C)[C@@H](O)c1ccccc1)OC)N(C)C(=O)[C@@H](NC(=O)C[C@@H](N)CO)C(C)C [Example 32] , is the recorded pIC50 at or above 8?
No
